Source of measurements: patent US10398751B2

# PROCEDURE_SUMMARY: Pharmacokinetics of IR formulations in minipigs
# Format: in vivo
# EXPERIMENTAL_CONTEXT: minipig, plasma, sc, 0.4 mg/kg, minipigs, IR, SC 0.4 mg/Kg; Lactic acid buffer
MEASURED_QUANTITY: AUC(0-t) (ng·h/mL)
Write the answer as a number in ng·h/mL, unit excluded.

Form field AUC(0-t), entry C[C@@H](O)[C@@H]1NC(=O)[C@H](CCCCN)NC(=O)[C@@H](Cc2c[nH]c3ccccc23)NC(=O)[C@H](Cc2c[nH]c3ccccc23)NC(=O)[C@H](Cc2ccccc2)NC(=O)CCCNC(=O)CCCN(CC(N)=O)C(=O)[C@H](Cc2ccccc2)NC1=O [Veldoreotide Acetate] : 161
